Origin of values: PubChem BioAssay (NCI)

- Test system: BT-549 breast
- assay.procedure: NCI tumour cell line growth inhibition, 48 h
Provide the reported TGI of each item.

Data request: Bench note: what TGI did N=C(N)SCCc1ccccn1 show?
Data returned: > 100 µM

Data request: If you can, please state the reported TGI value of Cc1ncc([N+](=O)[O-])n1CCNC(=O)CCCCCn1ccnc1[N+](=O)[O-] .
Data returned: > 100 µM

Data request: Given CCOc1cc(C(C)(C)C)ccc1C1=N[C@@](C)(c2ccc(Cl)cc2)[C@@](C)(c2ccc(Cl)cc2)N1C(=O)N1CCN(CCS(C)(=O)=O)CC1 , state its recorded TGI.
Data returned: 10 µM

Data request: Please look up its TGI: COc1cc2c(cc1OCCCCCOc1cc3c(cc1OC)C(=O)N1CCC[C@H]1CN3)N=C[C@@H]1CCCN1C2=O
Data returned: 34.9 µM

Data request: Record request: TGI value, item Cc1cc(O)cc2c1c(=O)c1ccccc1n2C
Data returned: > 100 µM

Data request: # input compound: C#CCN(Cc1nc2cc(C(F)(F)F)ccc2nc1-c1ccccc1)c1ccc(F)c(F)c1 ; wanted: its TGI
Data returned: > 100 µM

Data request: Could you share which TGI value was measured for COc1cccc(C2=C(c3cn(C)c4cccc(OC)c34)C(=O)NC2=O)c1 ?
Data returned: > 25 µM

Data request: Which TGI value belongs to O=C1c2ccccc2-c2c1c1ccccc1c(=O)n2-c1ccccc1 ?
Data returned: > 52 µM

Data request: Record request: TGI value, item COC(=O)[C@H](CCSC)NC(=O)c1ccc(CNC(=O)/C(C)=C/c2ccccc2)cc1
Data returned: 60.9 µM

Data request: Consider the compound shown here: Cc1sc2nc3n(c(=O)c2c1C)N=C(c1ccc([N+](=O)[O-])cc1)CS3 What is its recorded TGI?
Data returned: > 100 µM

Data request: Item under review: Nc1c(C(=O)Nc2cccc(Br)c2)sc2nc3c(cc12)C(O)CCC3 (centres undefined) . Reported TGI?
Data returned: > 75.3 µM

Data request: Need TGI of COP(C)(=O)C(Cc1c[nH]c2ccccc12)NC(=O)OCc1ccccc1 (centres undefined) , thanks.
Data returned: > 100 µM

Data request: Request the reported TGI associated with O=C(O)CC(O)(C(=O)O)C(O)C(=O)O (centres undefined)
Data returned: > 1000 µM

Data request: Which TGI is reported for this compound? O=C(NCCCCOCC#Cc1ccccc1C#CCS(=O)(=O)c1ccccc1)c1cc2ccccc2[nH]1
Data returned: > 27.1 µM

Data request: Query (compound): CCOC(=O)Cc1csc(NC(=O)COC(=O)c2ccc(OC)cc2)n1 ; field requested: TGI
Data returned: 66.3 µM

Data request: // TGI lookup, key: CCCn1c(N)c(C(=O)CNc2ccc(I)cc2)c(=O)[nH]c1=O
Data returned: > 100 µM

Data request: Find the recorded TGI belonging to CN1CCN(CCOc2ccc(-c3cnc4c(-c5ccc(F)cc5)cnn4c3)cc2)CC1 and report it.
Data returned: 9.44 µM

Data request: GET /values?readout=TGI&item= Nc1ccc(-c2nc3ccccc3s2)cc1Br
Data returned: > 100 µM

Data request: State the recorded TGI for this entry: O=[N+]([O-])c1cc(F)c2cccnc2c1O
Data returned: > 100 µM

Data request: Recorded TGI of OC(c1ccccc1)(c1cccnc1)C(O)(c1ccccc1)c1cccnc1 (centres undefined) , please.
Data returned: > 100 µM

Data request: Name the recorded TGI for CC(C)c1cccc(C(C)C)c1OS(=O)(=O)NC(=O)OC(C(F)(F)F)C(F)(F)F .
Data returned: > 100 µM

Data request: Recorded TGI of CCOC(=S)SCN1C(=O)c2ccccc2S1(=O)=O , please.
Data returned: 38.4 µM

Data request: Would you kindly share the measured TGI for O=C(c1ccccc1)C1C(C(=O)c2ccccc2)C(c2ccccc2)N(c2ccccc2)C1c1ccccc1 (centres undefined) ?
Data returned: > 100 µM

Data request: Item under review: CCOP(=O)(OCC)C(Nc1ccc(F)cc1)c1ccccc1 (centres undefined) . Reported TGI?
Data returned: > 100 µM
